- system under test: UniProtKB Q96LA8
- Sequence (Q96LA8 whole entry, the tested form may be a part): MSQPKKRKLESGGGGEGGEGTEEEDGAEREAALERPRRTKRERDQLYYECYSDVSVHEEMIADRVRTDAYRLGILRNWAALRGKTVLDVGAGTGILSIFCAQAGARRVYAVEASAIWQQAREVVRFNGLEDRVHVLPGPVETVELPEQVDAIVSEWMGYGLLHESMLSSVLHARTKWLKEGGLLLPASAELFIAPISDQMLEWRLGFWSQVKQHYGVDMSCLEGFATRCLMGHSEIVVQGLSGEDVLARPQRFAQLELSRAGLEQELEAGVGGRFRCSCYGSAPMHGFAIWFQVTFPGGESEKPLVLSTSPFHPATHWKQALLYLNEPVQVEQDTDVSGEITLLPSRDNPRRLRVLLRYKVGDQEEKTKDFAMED
- assay overview: Inhibition of N-terminal His tagged human recombinant PRMT6 (2 to 375 residues) expressed in Escherichia coli using SAM and Histone (1 to 21 residues) as substrate preincubated for 60 mins followed by substrate addition and measured after 40 mins by Topcount reader based analysis
property name: IC50 (nM)
Reply numerically in nM, unit not repeated.

I looked up CCOCC1(COCC)CCC(c2n[nH]cc2CN(C)CCNC)CC1 and its IC50 for UniProtKB Q96LA8 was 1.7

----------
- system under test: Protein arginine N-methyltransferase 1 (Homo sapiens)
- Sequence (Q99873 whole entry): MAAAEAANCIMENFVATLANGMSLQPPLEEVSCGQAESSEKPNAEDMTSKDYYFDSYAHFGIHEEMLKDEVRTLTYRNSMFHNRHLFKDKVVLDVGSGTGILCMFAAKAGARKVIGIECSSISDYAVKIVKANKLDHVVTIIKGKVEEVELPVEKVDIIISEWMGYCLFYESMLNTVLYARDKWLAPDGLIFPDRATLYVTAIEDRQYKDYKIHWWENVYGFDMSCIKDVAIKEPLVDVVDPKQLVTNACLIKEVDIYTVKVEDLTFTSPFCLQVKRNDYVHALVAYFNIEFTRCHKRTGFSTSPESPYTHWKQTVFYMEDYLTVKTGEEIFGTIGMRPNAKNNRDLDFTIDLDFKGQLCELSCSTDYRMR
property name: IC50
Answers without a unit are incomplete; give the number and then its unit.

I looked up CCOCC1(COCC)CCC(Oc2ccccc2CN(C)C[C@@H](O)CNC)CC1 and its IC50 for Protein arginine N-methyltransferase 1 (Homo sapiens) was 56 nM

# credit: ChEMBL document CHEMBL5506007
